# SYSTEM: T1, sIL-5Rα antigen protein (Sinobio 10392-H08H) (Homo sapiens (Human), UniProt Q01344 21-342)
# T1 construct: Bought protein immobilised in the indirect ELISAs; also called soluble IL-5Rα; CD125
# T1 sequence: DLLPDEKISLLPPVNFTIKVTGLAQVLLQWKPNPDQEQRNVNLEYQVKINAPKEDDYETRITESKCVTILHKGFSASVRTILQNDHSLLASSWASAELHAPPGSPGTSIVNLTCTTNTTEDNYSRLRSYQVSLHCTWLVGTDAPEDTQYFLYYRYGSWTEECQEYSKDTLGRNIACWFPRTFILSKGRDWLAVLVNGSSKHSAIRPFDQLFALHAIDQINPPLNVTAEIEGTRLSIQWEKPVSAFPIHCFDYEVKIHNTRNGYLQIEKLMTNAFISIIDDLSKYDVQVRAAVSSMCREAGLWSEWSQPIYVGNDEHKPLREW
# TEST DETAILS: indirect ELISA; plate-coated sIL-5Rα, antibody 100 nM, anti-human Fc-HRP, absorbance at 450 nm
METRIC: binding result

4R34.1.19 antibody (antibody, V domains shown, Parent anti-IL-4Rα antibody, tested as IgG1 and captured through human Fc; also called anti-IL-4Rα antibody (4R34.1.19)) VH: EVQLLESGGGLVQPGGSLRLSCAASGFTFSRHAMAWVRQAPGKGLEWVSAITSSGRSIYYADSVKGRFTISRDNSKNTLYLQMNSLRAEDTAVYYCARVHRAFDYWGQGTLVTVSS VL: QSVLTQPPSASGTPGQRVTISCSGSPLFPDSGSFNWYQQLPGTAPKLLIYADSHRPSGVPDRFSGSKSGTSASLAISGLRSEDEADYYCGTWDYSLSGYVLGGGTKLTVLG
binds
